Test system: OVCAR-5 ovarian
testDescription: NCI-60 one-dose screen, 48 h
assaySetup: 10 µM unless noted
Compounds without any hit were thinned out: in the full panel of roughly 83,000, 20% have a hit. Activity calls are given as the source filed them. The calls were made as follows: active = growth percent below 10; inactive = the rest.
Can you answer with just one of these options? 1 (active), 0 (inactive)

Please review the entries below; each comes with its answer.
| compound | assignedClass |
| --- | --- |
| Cc1ccc(C(Cc2ccccc2)NCCO)cc1 (stereo not drawn) | 0 |
| ClCCN(CCCl)c1ccc(/C=N\N=C\c2ccc(N(CCCl)CCCl)cc2)cc1 | 0 |

Would you kindly look at the next entry?
GET /call?item= O=C1C=C(N2C3C4CCC(C4)C32)C(=O)C=C1c1ccccc1 (stereo not drawn) returns the recorded outcome of this test.
0

====

Tested on: HCT-15 colon
testDescription: NCI-60 one-dose screen, 48 h (100 = growth as untreated, 0 = no growth, -100 = all killed)
assaySetup: 10 µM unless noted
About 83,000 compounds went through this panel and 20% of them were active in at least one assay; those are over-represented in the sample as a whole.
Sorting guide: entries reporting growth beneath 20% go in the true (1) pile, the rest go in the false (0) pile.

Please review the entries below; each comes with its answer.
| compound | assignedClass |
| --- | --- |
| Nc1ccc(Cl)cc1 | false (0) |
| COP(=O)(OC)C(O)c1ccc(Cl)cc1 (stereo unspecified) | false (0) |
| Nc1c(F)cc(-c2nc3cc(F)ccc3[se]2)cc1F | false (0) |
| O=C1C(Cl)=C(N2CCOCC2)C(=O)c2ccccc21 | false (0) |
| COc1ccc2c(c1)c(-c1nc(-c3cn(C)c4ncccc34)cs1)cn2CCN1CCOCC1 | false (0) |

Would you kindly look at the next entry?
Say whether its growth is strictly beneath 20%. Entry: `COc1ccc(N(CC(=O)NCCC[Te]c2ccccc2)C(=O)CNC(=O)OC(C)(C)C)cc1`
true (1)

====

Test system: SK-OV-3 ovarian
testDescription: NCI-60 one-dose screen, 48 h
assaySetup: 10 µM unless noted
The panel holds about 83,000 compounds, 20% with a hit somewhere; the sample as a whole holds those more often. Activity calls are given as the source filed them. The calls were made as follows: active = growth percent below 10; inactive = the rest.
Can you answer with just one of these options? active, inactive

Please review the entries below; each comes with its answer.
| compound | systemName | assignedClass |
| --- | --- | --- |
| CCOP1(=O)CC(C)=C(Cl)C(P(=O)(OCC)OCC)C1 (stereo not given) | SK-OV-3 ovarian | inactive |
| O=C(O)CNC(=O)C(Cl)(Cl)Cl | SK-OV-3 ovarian | inactive |
| COc1ccc(C/C(C)=C(\c2ccc(OCCN3CCOCC3)cc2)c2ccc(OC(=O)Cc3ccccc3)cc2)cc1 | SK-OV-3 ovarian | active |

Would you kindly look at the next entry?
GET /call?item= COC(=O)C1OC(Oc2ccc(N(CCCl)CCCl)cc2)C(OC(C)=O)C(OC(C)=O)C1OC(C)=O (stereo not given) returns the recorded outcome of this test.
inactive

====

System: HCC-2998 colon
testDescription: NCI-60 one-dose screen, 48 h
assaySetup: 10 µM unless noted
About 83,000 compounds went through this panel and 20% of them were active in at least one assay; those are over-represented in the sample as a whole. The source made the active and inactive calls. Rule for the calls: active = growth percent below 10; inactive = the rest.
Can you answer with just one of these options? active, inactive

Please review the entries below; each comes with its answer.
| cpdSmiles | assignedClass |
| --- | --- |
| CC(=O)[C@H]1CC[C@H]2[C@@H]3CC[C@H]4C[C@H](N)CC[C@]4(C)[C@H]3CC[C@]12C | inactive |
| C=C1[C@@H](C)[C@H]2[C@H](Cc3ccccc3)NC(=O)[C@]23[C@@H](O)/C=C/[C@@](C)(O)C(=O)[C@@H](C)C/C=C/[C@H]3[C@@H]1O | inactive |
| C=CC[Se]C(=O)c1ccccc1OC(C)=O | active |
| CCn1nccc1NC(=O)C(=O)c1cn(Cc2ccc(F)cc2)c2cccc(OC)c12 | inactive |
| CC(=O)Nc1ccc(NC(=O)c2ccc([As](O)O)cc2)cc1 | inactive |

GET /call?item= `COC(=O)[C@@H](C)C[C@H](Cc1ccc(F)cc1)NC(=O)c1csc([C@@H](C[C@H](C(C)C)N(C)C(=O)[C@@H](NC(=O)[C@H]2CCCCN2C)C2CC2)OC(C)=O)n1` returns the recorded outcome of this test.
inactive

GET /call?item= `COC(=O)[C@@H](C)C[C@H](Cc1cn(C)c2ccccc12)NC(=O)c1csc([C@@H](C[C@H](C(C)C)N(C)C(=O)[C@@H](NC(=O)[C@H]2CCCCN2C)C(C)C)OC(C)=O)n1` returns the recorded outcome of this test.
inactive

====

Tested on: MCF7 breast
testDescription: NCI-60 one-dose screen, 48 h
assaySetup: 10 µM unless noted
Method: Growth inhibition of the MCF7 human tumor cell line is measured as a screen for anti-cancer activity. Cells are grown in 96 well plates and exposed to the test compound for 48 hours. Compounds are tested at a single concentration, which is 10^-5 M for most compounds. The reported endpoint is percent growth (GI% or GIPRCNT), where numbers from 0 - 100% represent growth inhibition, and numbers from -100% - 0 represent cell death. For example, a value of 40 represents 60% growth inhibition. […]
About 83,000 compounds went through this panel and 20% of them were active in at least one assay; those are over-represented in the sample as a whole. Activity calls are given as the source filed them. How the source made its calls: active means growth percent below 10; inactive means the rest.
Can you answer with just one of these options? active, inactive

| compound | assignedClass |
| --- | --- |
| COC(=O)C1CCC(NC(=O)c2csc([C@@H](C[C@H](C(C)C)N(C)C(=O)[C@@H](NC(=O)[C@H]3CCCCN3C)C(C)C)OC(C)=O)n2)CC1 (stereo not given in full) | inactive |
| COc1ccc2c(c1)c(-c1nc(-c3c[nH]c4ncccc34)cs1)cn2CCN1CCOCC1 | active |
| C=CCCCCCCCCC(=O)[O-].C=CCCCCCCCCC(=O)[O-].[Zn+2] | inactive |
| O=[N+]([O-])CC(O)C(Cl)(Cl)Cl (stereo not given) | inactive |
| CC1(C)C(C(=O)c2cn(CCCCF)c3ccccc23)C1(C)C | inactive |
| CN(C)C(=O)Oc1ccccc1-c1ccccc1 | inactive |
| COc1ccc(C(=O)c2cc(OC)c(OC)c(OC)c2)cc1OC(C)=O | inactive |
| Nc1c(F)cc(-c2nc3cc(F)ccc3[se]2)cc1F | active |

GET /call?item= `Clc1ccc(N2COOC3(OOC2)C2CC4CC(C2)CC3C4)cc1` returns the recorded outcome of this test.
inactive

GET /call?item= `C[C@]12CCc3sc(-c4ccccc4O)nc3C1=CC[C@@H]1[C@@H]2CC[C@]2(C)C(=O)CC[C@@H]12` returns the recorded outcome of this test.
inactive

GET /call?item= `CC1(C)N=C(N)N=C(N)N1c1ccc(CCCCc2ccc(Cl)c(S(=O)(=O)F)c2)c(Cl)c1` returns the recorded outcome of this test.
inactive

====

Test system: ACHN renal
testDescription: NCI-60 one-dose screen, 48 h (100 = growth as untreated, 0 = no growth, -100 = all killed)
assaySetup: 10 µM unless noted
About 83,000 compounds went through this panel and 20% of them were active in at least one assay; those are over-represented in the sample as a whole.
Sorting guide: entries reporting growth beneath 50% go in the Satisfied pile, the rest go in the Not satisfied pile.

Please review the entries below; each comes with its answer.
| compound | systemName | assignedClass |
| --- | --- | --- |
| COc1ccc(C(O)(C(=O)O)c2ccc(OC)cc2)cc1 | ACHN renal | Not satisfied |
| COc1cc(/C=C\c2cc(OC)c(OC)c(OC)c2)cc(N/C=C\C(=O)c2cc(OC)c(OC)c(OC)c2)c1OC | ACHN renal | Satisfied |
| COc1ccc([As]=[As]c2ccc(OC)c(NCS(=O)(=O)O)c2)cc1NCS(=O)(=O)O (stereo not drawn) | ACHN renal | Satisfied |
| COc1ccc(/C=C\c2cc(OC)c(OC)c(OC)c2)cc1OCC(=O)Nc1nc2ccc(C(F)(F)F)cc2s1 | ACHN renal | Satisfied |
| CC(C)(C)C(=O)OCOP(=O)(NCc1ccccc1)C1CCCN(O)C1=O (stereo not drawn) | ACHN renal | Satisfied |

Say whether its growth is strictly beneath 50%. Entry: `CCOC(=O)[C@@H](C)C[C@H](Cc1ccccc1)NC(=O)c1csc([C@@H](C[C@H](C(C)C)N(C)C(=O)[C@H](CC)NC(=O)[C@H]2CCCCN2C)OC(C)=O)n1`
Satisfied

Say whether its growth is strictly beneath 50%. Entry: `CCCCC1(CCC)C(=O)NC(=S)NC1=O`
Not satisfied

====

Test system: OVCAR-5 ovarian
testDescription: NCI-60 one-dose screen, 48 h
assaySetup: 10 µM unless noted
Compounds without any hit were thinned out: in the full panel of roughly 83,000, 20% have a hit. Calls of active or inactive are those of the source. How the source made its calls: active means growth percent below 10; inactive means the rest.
Can you answer with just one of these options? 1 (yes) = active, 0 (no) = inactive

Please review the entries below; each comes with its answer.
| compound | assignedClass |
| --- | --- |
| Nc1ccc2c(c1)Cc1cc(Br)ccc1-2 | 0 (no) |
| O=C(CC1(O)C(=O)Nc2ccc(Br)cc21)c1ccc(C(=O)NCC2CCC3(CC2)OOC2(CCCCC2)OO3)cc1 (stereo not given) | 0 (no) |
| CC(=O)OCC1O[C@@H]([S-])C(OC(C)=O)[C@H](OC(C)=O)[C@@H]1OC(C)=O.[Au+].c1ccc(CN2[CH-]N(Cc3ccccc3)C(c3ccccc3)=C2c2ccccc2)cc1 | 0 (no) |
| Cn1cccc1C1CC(=O)N(CCC[Se]C#N)C1=O (stereo not given) | 0 (no) |
| COC(=O)[C@@H](C)C[C@H](Cc1ccccc1)NC(=O)c1csc([C@@H](C[C@H](C(C)C)N(C)C(=O)[C@@H](NC(=O)[C@H]2CCCCN2C)C2CC2)OC(C)=O)n1 | 0 (no) |

GET /call?item= `O=C1NC(=O)C(=Cc2cn(C(=O)c3ccccc3)c3ccccc23)C(=O)N1` returns the recorded outcome of this test.
0 (no)

GET /call?item= CCCCCCCCC(CO)NCCc1ccccc1 (stereo not given) returns the recorded outcome of this test.
0 (no)

GET /call?item= `[Cl][Hg][c]1cc[c]([Hg][Cl])o1` returns the recorded outcome of this test.
0 (no)

GET /call?item= `CNCc1cccnc1` returns the recorded outcome of this test.
0 (no)

GET /call?item= `COc1ccc(Nc2ccnc3cc(Cl)ccc23)cc1CN(CCCl)CCCl` returns the recorded outcome of this test.
1 (yes)
